- MEASUREMENT TARGET: Prothrombin (Bos taurus, UniProt P00735)
- ASSAY DETAILS: thrombin inhibition, dose response, biochemical, fluorescence polarization, uHTS hits (AID 602369)
- Assay type: functional
Calls of active or inactive are those of the source.
Below: a set of entries, each annotated with reported IC50.

COMPOUND	MEASUREMENT TARGET	IC50
COc1cccc(NC2=Nc3cccc4cccc2c34)c1	Prothrombin (Bos taurus, UniProt P00735)	37.8 µM (active)
O=C1NC(=O)N(c2ccc(Cl)cc2)C(=O)/C1=C\c1ccc(Sc2nc3ccccc3[nH]2)o1	Prothrombin (Bos taurus, UniProt P00735)	44.9 µM (active)
Cc1ccccc1NC(=NCCCN1CC1)Nc1ccccc1C	Prothrombin (Bos taurus, UniProt P00735)	30 µM (active)
CN1C=CC(=CC=C2C=CC(=O)C=C2)C=C1	Prothrombin (Bos taurus, UniProt P00735)	62.7 µM (active)
CCC(=O)NC(c1cccs1)c1cc([N+](=O)[O-])c2cccnc2c1O (stereo not given)	Prothrombin (Bos taurus, UniProt P00735)	> 100 µM (inactive)

###

- MEASUREMENT TARGET: Short transient receptor potential channel 4 (Mus musculus, UniProt Q9QUQ5)
- Sequence (Q9QUQ5 whole entry): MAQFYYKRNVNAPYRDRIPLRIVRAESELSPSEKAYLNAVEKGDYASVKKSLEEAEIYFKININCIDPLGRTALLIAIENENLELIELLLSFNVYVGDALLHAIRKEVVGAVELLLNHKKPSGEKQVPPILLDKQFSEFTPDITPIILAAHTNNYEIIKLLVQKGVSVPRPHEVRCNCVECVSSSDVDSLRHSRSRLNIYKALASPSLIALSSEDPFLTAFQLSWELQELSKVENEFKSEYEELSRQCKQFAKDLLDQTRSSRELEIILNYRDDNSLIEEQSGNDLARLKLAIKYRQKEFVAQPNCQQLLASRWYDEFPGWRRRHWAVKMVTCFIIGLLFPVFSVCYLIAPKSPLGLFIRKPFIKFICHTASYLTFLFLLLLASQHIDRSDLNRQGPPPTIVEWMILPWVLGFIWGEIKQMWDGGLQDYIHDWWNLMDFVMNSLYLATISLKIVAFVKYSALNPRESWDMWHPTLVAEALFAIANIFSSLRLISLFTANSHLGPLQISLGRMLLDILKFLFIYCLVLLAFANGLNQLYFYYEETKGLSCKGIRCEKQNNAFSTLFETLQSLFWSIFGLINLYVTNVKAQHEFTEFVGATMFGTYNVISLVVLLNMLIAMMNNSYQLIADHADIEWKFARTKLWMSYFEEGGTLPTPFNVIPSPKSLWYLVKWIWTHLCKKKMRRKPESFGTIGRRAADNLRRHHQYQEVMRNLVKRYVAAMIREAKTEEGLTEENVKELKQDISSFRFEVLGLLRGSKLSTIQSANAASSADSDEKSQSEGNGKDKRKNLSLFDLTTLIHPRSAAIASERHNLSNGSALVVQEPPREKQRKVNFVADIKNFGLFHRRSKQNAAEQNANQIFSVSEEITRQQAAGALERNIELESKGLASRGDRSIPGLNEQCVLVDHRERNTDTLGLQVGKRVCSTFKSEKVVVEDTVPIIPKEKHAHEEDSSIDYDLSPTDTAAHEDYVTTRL
- ASSAY DETAILS: mouse TRPC4 channel activators, dose response, cell-based, HEK293 TRPC4/mu-opioid, Fluo-4 calcium (AID 434937)
- Type: functional
Activity calls are given as the source filed them.
Below: a set of entries, each annotated with reported EC50.

COMPOUND	EC50
COc1cc(OC)cc(C(=O)NC(=S)NNC(=O)Cc2cccs2)c1	10.6 µM (active)
COc1ccc2c(Cl)c(-c3nnc4n3CCCCC4)sc2c1	1.88 µM (active)
O=[N+]([O-])c1ccc(N2CCNCC2)c2ncccc12	0.0373 µM (active)
CN(C)C(CNC(=O)c1cccc(S(=O)(=O)N(C)C)c1)c1ccccc1 (centres undefined)	0.299 µM (active)

###

Below: a set of entries, each annotated with reported EC50.
- MEASUREMENT TARGET: Oxysterols receptor LXR-beta (Homo sapiens)
- Sequence (P55055 whole entry): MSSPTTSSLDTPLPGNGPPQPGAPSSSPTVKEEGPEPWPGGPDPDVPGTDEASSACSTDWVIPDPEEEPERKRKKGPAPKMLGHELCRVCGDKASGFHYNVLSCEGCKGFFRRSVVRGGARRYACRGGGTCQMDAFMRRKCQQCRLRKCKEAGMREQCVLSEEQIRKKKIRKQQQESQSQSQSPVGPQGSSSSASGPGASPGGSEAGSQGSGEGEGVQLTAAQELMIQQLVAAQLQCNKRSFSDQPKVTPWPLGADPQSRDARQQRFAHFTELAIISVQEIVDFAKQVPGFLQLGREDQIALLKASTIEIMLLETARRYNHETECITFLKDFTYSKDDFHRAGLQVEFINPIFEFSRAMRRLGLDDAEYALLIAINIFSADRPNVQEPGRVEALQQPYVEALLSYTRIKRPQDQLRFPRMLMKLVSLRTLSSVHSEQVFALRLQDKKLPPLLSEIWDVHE
- ASSAY DETAILS: LXR agonists, Gal4 luciferase reporter, dose response, counter-screen for ssDAF-12 agonist project, cell-based, luminescence, HEK293, S. stercoralis campaign (AID 720737)
- Assay type: functional
- CONDITION: read-out: IC50 (the source's name)
Activity calls are given as the source filed them.

COMPOUND	EC50
CC(=O)Nc1ccc(/C=N/Nc2nc3ccccc3s2)cc1	> 67.5 µM (inactive)
COCCCNc1nc2c(-c3ccc(C)cc3)nnn2c2ccccc12	> 67.5 µM (inactive)
COc1ccc(C2CC(c3cccs3)=NN2C(=O)CN2CCCCC2)cc1 (centres undefined)	> 67.5 µM (inactive)
Clc1cccc(-c2nc3c4ccccc4ccn3c2Cc2ccsc2)c1	> 67.6 µM (inactive)
